experiment: NCI Yeast Anticancer Drug Screen. Data for the rad50 strain (AID 155);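 further: 0% = growth of vehicle-only cultures of the same strain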; conditions: S. cerevisiae rad50 strain growth inhibition; at 50.0 µM; hits give high values
About 79,000 compounds went through this panel and 15% of them were active in at least one assay; those are over-represented in the sample as a whole.
The following molecules are shown together with reported growth inhibition values.

molecule: CCNC(=O)OCCN(CCOC(=O)NCC)CCc1cccc(OC)c1OC
growth inhibition / %: 6.1
//
molecule: COC(=O)C(O)C(O)C(O)C(O)C(O)CO (stereo not drawn)
growth inhibition / %: -1.4
//
molecule: Cc1c(-c2ccc(N)cc2)c(=O)oc2cc(O)ccc12
growth inhibition / %: -8.65
//
molecule: CC(=O)CCC(CCCC(CCC(C)=O)[N+](=O)[O-])[N+](=O)[O-] (stereo not drawn)
growth inhibition / %: -7.3
//
molecule: Cc1cccc2c1CCC21OC(=O)c2c1cc(F)c1ccccc21 (stereo not drawn)
growth inhibition / %: -13.3
//
molecule: COc1cc(C(c2ccc3c(c2)OCO3)C2SCCCS2)cc(OC)c1OC (stereo not drawn)
growth inhibition / %: 25.2
//
molecule: O=C(O)c1cscc1Cc1ccccc1
growth inhibition / %: 0.9
//
molecule: CS(=O)(=O)CC1=NC(=N)N=C1CS(C)(=O)=O
growth inhibition / %: 6.05
//
molecule: CC[N+](CC)(CC)CCO
growth inhibition / %: -11.6
//
molecule: Cn1c(=O)c2c(no[n+]2[O-])c2ccccc21
growth inhibition / %: 18.1
//
molecule: CCCC(=O)Oc1ccc(Cl)cc1
growth inhibition / %: 12.9
//
molecule: Cc1ccc(C)c(C2NC(=O)c3ccccc3N2)c1 (stereo not drawn)
growth inhibition / %: -15.8
//
molecule: CC(=O)NCCCOc1ccc(N)cc1
growth inhibition / %: -3.7
